All figures here come from the RNAGym collection of RNA variant scans (doi:10.1126/science.aae0568).

B1: tRNA (parent)
chain: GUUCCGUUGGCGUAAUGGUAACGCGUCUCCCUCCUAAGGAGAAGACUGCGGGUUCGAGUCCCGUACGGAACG

# Variants of: B1
# ASSAY NOTES: yeast fitness relative to wild type (ratio to wild type); higher = fitter; tRNA-Arg(CCU), competitive growth, 37 C, YPD
Variants at the floor of the assay were thinned out.
I'd be grateful if you could share measured yeast fitness for these entries.
Reply with just the number.

*Q* Which yeast fitness reading was recorded for the variant C4G G10C ?
*A* 0.659

*Q* Which yeast fitness reading was recorded for the variant U3A C30G ?
*A* 0.598

*Q* Which yeast fitness reading was recorded for the variant G12A G39A G68A ?
*A* 0.528

*Q* Which yeast fitness reading was recorded for the variant C27U G58C A70U ?
*A* 0.876

*Q* Which yeast fitness reading was recorded for the variant U3C G25C G48A ?
*A* 0.598

*Q* Which yeast fitness reading was recorded for the variant G17A A37G ?
*A* 0.606
